The reported numbers originate from ChEMBL document CHEMBL4813932.

- System: Staphylococcus aureus
- Assay overview: microbe, parasite or virus in culture
- Format: functional
- Condition summary: ATCC 25923, time 48 hrs
- Description: Antibiofilm activity against Staphylococcus aureus ATCC 25923 assessed as inhibition of biofilm formation at 8 ug/ml measured after 48 hrs by crystal violet staining based assay relative to control
Measured quantity: inhibition at 8 µg/mL
Quick note: number first, unit second.

Consider the worked cases shown below.
{"Compound": "CC1(C)C[C@@H](O)C[C@](C)(O)/C1=C\\C(=O)O", "System": "Staphylococcus aureus", "inhibition at 8 µg/mL": "31.5%"}
{"Compound": "CO[C@@H]1c2cc(C(C)C)c(O)c(O)c2[C@@]23CCCC(C)(C)[C@@H]2[C@@H]1OC3=O", "System": "Staphylococcus aureus", "inhibition at 8 µg/mL": "91.8%"}
{"Compound": "CC(=O)O[C@H]1CC(C)(C)[C@@H]2CC[C@]3(C)C[C@]12CC[C@H]3O", "System": "Staphylococcus aureus", "inhibition at 8 µg/mL": "16.4%"}
{"Compound": "CC1(C)C[C@H]2[C@H]1CC[C@@]1(C)C[C@@]2(O)CC[C@@H]1O", "System": "Staphylococcus aureus", "inhibition at 8 µg/mL": "0%"}
{"Compound": "CC(C)c1cc2c(c(O)c1O)[C@@]13CCCC(C)(C)[C@@H]1C[C@@H]2OC3=O", "System": "Staphylococcus aureus", "inhibition at 8 µg/mL": "100%"}

Request: Quick check: inhibition at 8 µg/mL of COc1c(C(C)C)cc2c(c1O)[C@]1(C(=O)O)CCCC(C)(C)[C@@H]1CC2 (relative stereo) ?
Response: 8%

Request: Fill in: inhibition at 8 µg/mL of "COc1c(C(C)C)cc2c(c1O)[C@@]1(C(=O)O)CCCC(C)(C)[C@@H]1CC2" is ___
Response: 72%

Request: Entry CC(C)c1cc2c(c(O)c1O)[C@@]13CCCC(C)(C)[C@@H]1[C@H](OC3=O)[C@@H]2O [EPIROSMANOL] has what inhibition at 8 µg/mL?
Response: 81.7%

Request: Any idea what inhibition at 8 µg/mL was measured for "CC1(C)C[C@H]2[C@H]1CC[C@]1(C)C[C@]2(O)CC[C@@H]1O" ?
Response: 17.9%

---

- System: Pseudomonas aeruginosa
- Assay overview: microbe, parasite or virus in culture
- Assay type: functional
- Condition summary: ATCC 50071, time 48 hrs
- Description: Antibiofilm activity against Pseudomonas aeruginosa ATCC 50071 assessed as inhibition of biofilm formation at 8 ug/ml measured after 48 hrs by crystal violet staining based assay relative to control
Measured quantity: inhibition at 8 µg/mL (%)
Field: numeric (%). Do not append units.

Worked examples follow.
{"Compound": "CC(C)c1cc2c(c(O)c1O)[C@@]13CCCC(C)(C)[C@@H]1[C@@H](O)[C@@H]2OC3=O", "inhibition at 8 µg/mL (%)": 80.5}
{"Compound": "CC(C)c1cc2c(c(O)c1O)[C@@]13CCCC(C)(C)[C@@H]1[C@H](OC3=O)[C@@H]2O [EPIROSMANOL]", "inhibition at 8 µg/mL (%)": 74.8}
{"Compound": "CC1(C)C[C@H](O)[C@]23CC[C@@H](O)[C@](C)(CC[C@@H]12)C3", "inhibition at 8 µg/mL (%)": 40}
{"Compound": "C=C1CC/C=C(/C)[C@H](O)C[C@@H]2[C@@H]1CC2(C)CO (stereo partly drawn)", "inhibition at 8 µg/mL (%)": 34.3}

Request: Fill in the blank: the reported inhibition at 8 µg/mL of "CO[C@@H]1c2cc(C(C)C)c(O)c(O)c2[C@@]23CCCC(C)(C)[C@@H]2[C@@H]1OC3=O" is ____.
Response: 76.5

Request: Find the recorded inhibition at 8 µg/mL belonging to "CC(C)c1cc2c(c(O)c1O)C1=C(CC2)C(C)(C)CCC1=O" and report it.
Response: 0

Request: Given the entry "CC1(C)C[C@@H](O)C[C@](C)(O)/C1=C\C(=O)O" , report its measured inhibition at 8 µg/mL.
Response: 55.5

Request: Fill blank: measured inhibition at 8 µg/mL of the compound "COc1cc2oc(-c3ccc(O)cc3)cc(=O)c2c(O)c1OC" is ____.
Response: 83.7

Request: inhibition at 8 µg/mL lookup needed for "CC(C)c1cc2c(c(O)c1O)[C@@]13CCCC(C)(C)[C@@H]1C[C@@H]2OC3=O" , thanks.
Response: 88.5

Request: What value of inhibition at 8 µg/mL has been reported for the following compound? "CC1(C)C[C@H]2[C@H]1CC[C@@]1(C)C[C@@]2(O)CC[C@@H]1O"
Response: 4

Request: Find the recorded inhibition at 8 µg/mL belonging to "CC(C)c1cc2c(c(O)c1O)C[C@@]1(O)[C@@H](O)CCC(C)(C)[C@@H]1CC2" and report it.
Response: 65.7

---

- Test system: Listeria monocytogenes
- Assay overview: microbe, parasite or virus in culture
- Format: functional
- Condition summary: ATCC 7644, time 48 hrs
- Description: Antibiofilm activity against Listeria monocytogenes ATCC 7644 assessed as inhibition of biofilm formation at 8 ug/ml measured after 48 hrs by crystal violet staining based assay relative to control
Measured quantity: inhibition at 8 µg/mL

{"Molecule": "CC(C)c1cc2c(cc1O)[C@@]1(C)CCCC(C)(C)[C@@H]1CC2", "Measured quantity": "inhibition at 8 µg/mL", "Experimental value": "60.9%"}

Request: Please report the recorded inhibition at 8 µg/mL for "CC(C)c1cc2c(c(O)c1O)C[C@@]1(O)[C@@H](O)CCC(C)(C)[C@@H]1CC2" .
Response: 0%

Request: What value of measured inhibition at 8 µg/mL is listed for C=C1CC/C=C(/C)[C@H](O)C[C@@H]2[C@@H]1CC2(C)CO (stereo partly drawn) ?
Response: 51.1%

Request: Name the recorded inhibition at 8 µg/mL for "CC1(C)C[C@@H](O)C[C@](C)(O)/C1=C\C(=O)O" .
Response: 10.2%

Request: Entry C=CC(C)(O)C/C=C/C(C)(C)O (stereo not drawn) : reported inhibition at 8 µg/mL = ?
Response: 85%

Request: Return reported inhibition at 8 µg/mL; argument: CC(C)c1cc2c(c(O)c1O)[C@@]13CCCC(C)(C)[C@@H]1[C@H](OC3=O)[C@@H]2O [EPIROSMANOL]
Response: 63.4%

Request: Quick check: inhibition at 8 µg/mL of "CO[C@@H]1c2cc(C(C)C)c(O)c(O)c2[C@@]23CCCC(C)(C)[C@@H]2[C@@H]1OC3=O" ?
Response: 0%

Request: Fill in the blank: the reported inhibition at 8 µg/mL of "C=C(C)[C@@H]1CC[C@]2(C(=O)O)CC[C@]3(C)[C@H](CC[C@@H]4[C@@]5(C)CC[C@H](O)C(C)(C)[C@@H]5CC[C@]43C)[C@@H]12" is ____.
Response: 80.4%

Request: Could you tell me which inhibition at 8 µg/mL is on file for "CO[C@H]1c2cc(C(C)C)c(O)c(O)c2[C@@]23CCCC(C)(C)[C@@H]2[C@@H]1OC3=O" ?
Response: 23.8%

Request: Any idea what inhibition at 8 µg/mL was measured for "COc1cc2oc(-c3ccc(O)cc3)cc(=O)c2c(O)c1OC" ?
Response: 65.2%

Request: Quick one: inhibition at 8 µg/mL of "CC1(C)C[C@H]2[C@H]1CC[C@@]1(C)C[C@@]2(O)CC[C@@H]1O" ?
Response: 38.7%

Request: Need inhibition at 8 µg/mL, item "CC(C)c1cc2c(c(O)c1O)[C@@]13CCCC(C)(C)[C@@H]1[C@H](OC3=O)[C@H]2O"
Response: 68.7%

Request: Which value of inhibition at 8 µg/mL has been reported for "CCCCCC" in the records?
Response: 98.3%

Request: Can you look up the measured inhibition at 8 µg/mL of "COc1c(C(C)C)cc2c(c1O)[C@@]1(C(=O)O)CCCC(C)(C)[C@@H]1CC2" for me?
Response: 81%

Request: Data request, read-out inhibition at 8 µg/mL, for "CC(C)c1cc2c(c(O)c1O)C1=C(CC2)C(C)(C)CCC1=O"
Response: 0.9%

Request: Which measured inhibition at 8 µg/mL value corresponds to "CC(C)c1cc2c(c(O)c1O)[C@@]13CCCC(C)(C)[C@@H]1C[C@@H]2OC3=O" ?
Response: 46.7%

Request: Item under review: "CC1(C)C[C@H]2[C@H]1CC[C@]1(C)C[C@]2(O)CC[C@@H]1O" . Reported inhibition at 8 µg/mL?
Response: 25.7%

Request: I am curious: what inhibition at 8 µg/mL value has been reported for "CC1(C)C[C@H](O)[C@]23CC[C@@H](O)[C@](C)(CC[C@@H]12)C3" ?
Response: 17.8%

---

- Test system: Pseudomonas aeruginosa
- Assay overview: microbe, parasite or virus in culture
- Format: functional
- Condition summary: ATCC 50071, time 48 hrs
- Description: Antibiofilm activity against Pseudomonas aeruginosa ATCC 50071 assessed as inhibition of bacterial metabolism within the biofilm at 4 ug/ml measured after 48 hrs by MTT assay relative to control
Measured quantity: inhibition at 4 µg/mL (%)
Respond with the bare value in %.

Use these answered entries as a reference point.
{"Compound": "COc1c(C(C)C)cc2c(c1O)[C@@]1(C(=O)O)CCCC(C)(C)[C@@H]1CC2", "Measured quantity": "inhibition at 4 µg/mL", "Unit tag": "%", "Experimental value": 43.2}
{"Compound": "C=C1CC/C=C(/C)[C@H](O)C[C@@H]2[C@@H]1CC2(C)CO (some centres undefined)", "Measured quantity": "inhibition at 4 µg/mL", "Unit tag": "%", "Experimental value": 27.4}

Request: For C=CC(C)(O)C/C=C/C(C)(C)O (centres undefined) , what is its reported inhibition at 4 µg/mL?
Response: 68.1

Request: Fill blank: measured inhibition at 4 µg/mL of the compound "CCCCCC" is ____.
Response: 95.5

Request: Recorded inhibition at 4 µg/mL for CC(C)c1cc2c(c(O)c1O)[C@@]13CCCC(C)(C)[C@@H]1[C@H](OC3=O)[C@@H]2O [EPIROSMANOL] , please?
Response: 0

Request: Using the record for "CO[C@H]1c2cc(C(C)C)c(O)c(O)c2[C@@]23CCCC(C)(C)[C@@H]2[C@@H]1OC3=O" , report its inhibition at 4 µg/mL.
Response: 3.1

Request: Look up inhibition at 4 µg/mL: "COc1cc2oc(-c3ccc(O)cc3)cc(=O)c2c(O)c1OC"
Response: 0

Request: Can you look up the measured inhibition at 4 µg/mL of "CC1(C)C[C@H](O)[C@]23CC[C@@H](O)[C@](C)(CC[C@@H]12)C3" for me?
Response: 39.8

Request: Param item = "CC1(C)C[C@H]2[C@H]1CC[C@@]1(C)C[C@@]2(O)CC[C@@H]1O" ; retrieve measured inhibition at 4 µg/mL.
Response: 0
